# System: ZR-75-1
# measurementProtocol: Cytotoxicity, 3 hour pulse-exposure, ZR-75-1
# testSettings: Homo sapiens, ZR-75-1, 3 h
pIC50: −log10 of the molar value.
endpointLabel: pIC50

>>> testvalue("CCC(Cc1cnc2nc(N)nc(N)c2n1)c1ccc(C(=O)N[C@@H](CCC(=O)O)C(=O)O)cc1 (stereo partly shown) [EDX, edatrexate]")
6.07

* * *

# measurementProtocol: in vivo
# testSettings: rat, iv
endpointLabel: LD50

>>> testvalue("C#CCC(Cc1cnc2nc(N)nc(N)c2n1)c1ccc(C(=O)N[C@@H](CCC(=O)O)C(=O)O)cc1 (stereo partly shown) [10-propargyl-10dAM, 10-Propargyl-10-deazaaminopterin]")
"~110 mg/kg"

* * *

# Tested on: SK-BRIII
# measurementProtocol: Cytotoxicity, 3 hour pulse-exposure, SK-BRIII
# testSettings: Homo sapiens
endpointLabel: IC50 (nM)

>>> testvalue("CCC(Cc1cnc2nc(N)nc(N)c2n1)c1ccc(C(=O)N[C@@H](CCC(=O)O)C(=O)O)cc1 (stereo partly shown) [EDX, edatrexate]")
990

* * *

# System: SKLC-16
# measurementProtocol: Cytotoxicity, 3 hour pulse-exposure, SKLC-16
# testSettings: Homo sapiens
endpointLabel: IC50 (µM)

>>> testvalue("CCC(Cc1cnc2nc(N)nc(N)c2n1)c1ccc(C(=O)N[C@@H](CCC(=O)O)C(=O)O)cc1 (stereo partly shown) [EDX, edatrexate]")
0.26

* * *

# Test system: MDA468
# measurementProtocol: Cytotoxicity, 3 hour pulse-exposure, MDA468
# testSettings: Homo sapiens
pIC50: −log10 of the molar value.
endpointLabel: pIC50

>>> testvalue("CCC(Cc1cnc2nc(N)nc(N)c2n1)c1ccc(C(=O)N[C@@H](CCC(=O)O)C(=O)O)cc1 (stereo partly shown) [EDX, edatrexate]")
6.42

* * *

# measurementProtocol: in vivo
# testSettings: dog, iv
endpointLabel: LD50

>>> testvalue("C#CCC(Cc1cnc2nc(N)nc(N)c2n1)c1ccc(C(=O)N[C@@H](CCC(=O)O)C(=O)O)cc1 (stereo partly shown)")
"~8 mg/kg"
